test: Tissue distribution of THP, DHC and protopine in rat tissues after gastric gavage administration (HPLC-UV, non-compartmental analysis); type: in vivo, Wistar male rats; conditions: male, Wistar, po, 26.1 mg/kg, rat kidney, read-out: MRT of DHC
readoutName: MRT (h)
Give just the number in h; leave the unit off.

Provide measured MRT value, entry: COc1cc2c(cc1OC)-c1c(C)c3ccc(OC)c(OC)c3c[n+]1CC2 [DHC, dehydrocorydaline]
4.94

====

assay: Tissue distribution of THP, DHC and protopine in rat tissues after gastric gavage administration (HPLC-UV, non-compartmental analysis); assay type: in vivo, Wistar male rats; details: male, Wistar, po, 4.52 mg/kg, rat lung, read-out: MRT of protopine
readoutName: MRT (h)
Number in h, nothing else.

Specify MRT for `CN1CCc2cc3c(cc2C(=O)Cc2ccc4c(c2C1)OCO4)OCO3` and stop.
5.85

====

experiment: Tissue distribution of THP, DHC and protopine in rat tissues after gastric gavage administration (HPLC-UV, non-compartmental analysis); assay type: in vivo, Wistar male rats; details: male, Wistar, po, 4.52 mg/kg, rat lung, read-out: Cmax of protopine
readoutName: Cmax
Include the unit right after the number.

// fetch Cmax given entry `CN1CCc2cc3c(cc2C(=O)Cc2ccc4c(c2C1)OCO4)OCO3`
11200 ng/mL

====

test: Tissue distribution of THP, DHC and protopine in rat tissues after gastric gavage administration (HPLC-UV, non-compartmental analysis); format: in vivo, Wistar male rats; details: male, Wistar, po, 4.52 mg/kg, rat cerebrum, read-out: MRT of protopine
readoutName: MRT (h)
Dear colleague, please return just the value in h, with no unit written.

Report measured MRT; entry is `CN1CCc2cc3c(cc2C(=O)Cc2ccc4c(c2C1)OCO4)OCO3`
3.93

====

experiment: Tissue distribution of THP, DHC and protopine in rat tissues after gastric gavage administration (HPLC-UV, non-compartmental analysis); format: in vivo, Wistar male rats; conditions: male, Wistar, po, 26.1 mg/kg, rat cerebellum, read-out: MRT of DHC
readoutName: MRT (h)
The figure you give is taken to be in h; do not add the unit.

Identify measured MRT corresponding to COc1cc2c(cc1OC)-c1c(C)c3ccc(OC)c(OC)c3c[n+]1CC2 [DHC, dehydrocorydaline]
5.67

====

Experiment: Tissue distribution of THP, DHC and protopine in rat tissues after gastric gavage administration (HPLC-UV, non-compartmental analysis)
Type: in vivo, Wistar male rats
Conditions: male, Wistar, po, 4.52 mg/kg, rat liver, read-out: Tmax of protopine
Procedure: The experimental protocol was approved by the University's Animal Ethics Committee. […] Rats had unlimited access to water. Standard food was given until 12 h before the experiments. Rhizoma Corydalis was processed according to Pharmacopoeia of Chinese Medicine and National Guideline of Traditional Chinese Medicinal Plants Processing. Briefly, fresh Rhizoma Corydalis was boiled in water till the pith turn light brown color. Cooked rhizome was sliced into pieces (4 mm, diameter) and dried at 25 °C. […]
readoutName: Tmax (h)
All answers are understood in h, so give the number only.

# return recorded Tmax for input `CN1CCc2cc3c(cc2C(=O)Cc2ccc4c(c2C1)OCO4)OCO3`
5.09

====

assay: Tissue distribution of THP, DHC and protopine in rat tissues after gastric gavage administration (HPLC-UV, non-compartmental analysis); format: in vivo, Wistar male rats; settings: male, Wistar, po, 26.1 mg/kg, rat cerebellum, read-out: Tmax of DHC
readoutName: Tmax
Write the figure, then the unit, nothing else.

Give the measured Tmax for COc1cc2c(cc1OC)-c1c(C)c3ccc(OC)c(OC)c3c[n+]1CC2 [DHC, dehydrocorydaline]
15 min
